target: Voltage-dependent T-type calcium channel subunit alpha-1G (Homo sapiens); test: Inhibition of T type calcium channel subunit alpha1G expressed in HEK293 cells assessed as effect on KCl-induced increase in intracellular calcium level at 10 uM by FDSS assay; type: cell-based
Sequence (O43497 whole entry): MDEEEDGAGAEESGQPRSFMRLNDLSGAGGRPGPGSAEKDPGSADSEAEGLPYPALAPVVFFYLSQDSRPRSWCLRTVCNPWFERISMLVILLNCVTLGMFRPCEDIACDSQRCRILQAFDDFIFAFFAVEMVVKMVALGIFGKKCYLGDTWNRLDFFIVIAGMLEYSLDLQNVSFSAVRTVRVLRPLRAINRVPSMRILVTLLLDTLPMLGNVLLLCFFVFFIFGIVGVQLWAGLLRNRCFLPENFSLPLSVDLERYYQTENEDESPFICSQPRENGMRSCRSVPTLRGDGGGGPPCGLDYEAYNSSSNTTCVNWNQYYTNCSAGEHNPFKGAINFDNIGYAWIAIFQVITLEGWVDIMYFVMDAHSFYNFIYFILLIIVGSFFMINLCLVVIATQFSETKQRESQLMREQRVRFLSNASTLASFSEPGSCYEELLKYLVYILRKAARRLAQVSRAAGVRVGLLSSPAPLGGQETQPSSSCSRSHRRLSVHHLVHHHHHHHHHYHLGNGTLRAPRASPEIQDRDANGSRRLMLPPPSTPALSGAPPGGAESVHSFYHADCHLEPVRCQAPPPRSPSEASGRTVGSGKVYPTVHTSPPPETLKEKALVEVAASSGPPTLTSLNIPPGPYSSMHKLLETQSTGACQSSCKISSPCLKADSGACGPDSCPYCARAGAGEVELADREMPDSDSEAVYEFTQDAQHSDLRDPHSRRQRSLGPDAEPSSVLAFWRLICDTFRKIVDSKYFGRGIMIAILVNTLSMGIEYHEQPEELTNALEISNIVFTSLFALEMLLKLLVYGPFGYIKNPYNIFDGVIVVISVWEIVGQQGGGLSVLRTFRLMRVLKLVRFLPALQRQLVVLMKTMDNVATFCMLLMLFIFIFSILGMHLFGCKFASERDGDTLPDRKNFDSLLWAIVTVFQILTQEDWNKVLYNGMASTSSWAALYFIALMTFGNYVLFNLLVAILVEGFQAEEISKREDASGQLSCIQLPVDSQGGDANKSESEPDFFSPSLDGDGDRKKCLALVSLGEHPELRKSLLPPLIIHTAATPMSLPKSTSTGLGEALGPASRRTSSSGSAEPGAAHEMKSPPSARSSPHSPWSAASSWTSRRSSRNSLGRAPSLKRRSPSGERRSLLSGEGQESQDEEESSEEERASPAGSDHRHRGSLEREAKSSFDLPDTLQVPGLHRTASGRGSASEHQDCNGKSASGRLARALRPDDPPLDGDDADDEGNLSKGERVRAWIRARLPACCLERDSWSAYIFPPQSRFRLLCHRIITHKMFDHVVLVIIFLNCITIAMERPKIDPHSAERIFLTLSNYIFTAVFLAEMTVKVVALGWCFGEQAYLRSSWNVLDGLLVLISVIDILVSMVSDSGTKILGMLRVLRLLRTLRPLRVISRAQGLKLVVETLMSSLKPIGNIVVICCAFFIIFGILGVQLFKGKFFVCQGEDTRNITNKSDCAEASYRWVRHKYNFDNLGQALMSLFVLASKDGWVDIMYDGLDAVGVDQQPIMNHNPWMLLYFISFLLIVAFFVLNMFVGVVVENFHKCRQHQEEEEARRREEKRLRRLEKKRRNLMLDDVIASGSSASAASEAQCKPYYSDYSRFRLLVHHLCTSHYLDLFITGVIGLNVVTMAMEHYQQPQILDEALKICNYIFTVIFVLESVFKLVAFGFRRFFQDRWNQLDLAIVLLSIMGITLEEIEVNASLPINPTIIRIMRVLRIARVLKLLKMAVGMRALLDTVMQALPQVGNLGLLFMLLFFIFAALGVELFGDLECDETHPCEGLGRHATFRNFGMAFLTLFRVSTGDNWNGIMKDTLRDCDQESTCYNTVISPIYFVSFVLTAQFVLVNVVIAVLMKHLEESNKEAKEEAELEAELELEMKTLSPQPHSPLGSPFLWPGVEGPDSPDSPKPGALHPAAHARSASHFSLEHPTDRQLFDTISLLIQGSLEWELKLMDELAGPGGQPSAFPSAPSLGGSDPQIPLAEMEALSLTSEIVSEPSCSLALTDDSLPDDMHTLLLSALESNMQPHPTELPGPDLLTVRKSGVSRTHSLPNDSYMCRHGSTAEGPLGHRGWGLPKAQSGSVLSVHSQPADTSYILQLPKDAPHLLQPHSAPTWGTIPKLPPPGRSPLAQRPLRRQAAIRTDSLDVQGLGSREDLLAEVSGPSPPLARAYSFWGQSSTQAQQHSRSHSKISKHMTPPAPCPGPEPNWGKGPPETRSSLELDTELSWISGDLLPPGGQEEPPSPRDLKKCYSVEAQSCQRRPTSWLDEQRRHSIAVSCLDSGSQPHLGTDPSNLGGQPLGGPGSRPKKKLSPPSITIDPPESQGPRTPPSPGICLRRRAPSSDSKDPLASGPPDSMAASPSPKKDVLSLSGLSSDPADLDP
ASSAY_ENDPOINT: inhibition (%)
Value expressed in %; do not type the unit.

Below: 3 compounds and their reported inhibition.
> print(dat)
                              sample.smiles  measured.number
1  O=C(CCCN1CCN(c2ccccc2F)CC1)Nc1ccc(Cl)cc1Cl             27.4
2  O=C(CN1CCN(C(=O)CCCCN2CCN(Cc3ccc(Cl)cc3)CC2)CC1)Nc1ccccc1Cl             26.2
3  O=C(CCCN1CCN(c2ccccc2Cl)CC1)Nc1ccc(Cl)cc1             37.3

Here is the next item to consider.
Prompt: Answer with the recorded inhibition of `O=C(CCCN1CCN(c2ccc(Cl)cc2)CC1)Nc1ccc(Cl)cc1` only.
Completion: 48.3

----------
target: Voltage-dependent T-type calcium channel subunit alpha-1G (Homo sapiens); assay: Inhibition of T type calcium channel subunit alpha1G expressed in HEK293 cells assessed as effect on KCl-induced increase in intracellular calcium level at 10 uM by FDSS assay; format: cell-based
ASSAY_ENDPOINT: inhibition (%)
Value expressed in %; do not type the unit.

Below: 3 molecules and their reported inhibition.
> print(dat)
                              sample.smiles  assay.endpoint  unit.of.measure  measured.number
1  O=C(CCCN1CCN(Cc2c(F)cccc2Cl)CC1)Nc1ccc(F)cc1F      inhibition                %             38.9
2  O=C(CCCN1CCN(c2cccc(Cl)c2)CC1)Nc1ccc(F)cc1F      inhibition                %               51
3  O=C(CN1CCN(C(=O)CCCCN2CCN(c3ccccc3)CC2)CC1)Nc1ccccc1Cl      inhibition                %             25.2

Prompt: Answer with the recorded inhibition of `O=C(CCCN1CCN(c2cccc(Cl)c2)CC1)Nc1cc(Cl)c(Cl)c(Cl)c1` only.
Completion: 16.8

Prompt: Answer with the recorded inhibition of `O=C(CCCN1CCN(c2ccccc2)CC1)Nc1cc(Cl)c(Cl)c(Cl)c1` only.
Completion: 38.3

Prompt: Answer with the recorded inhibition of `COc1cccc(N2CCN(CCCCC(=O)N3CCN(CC(=O)Nc4ccccc4Cl)CC3)CC2)c1` only.
Completion: 26.1

Prompt: Answer with the recorded inhibition of `O=C(CCCN1CCN(Cc2cccc(Cl)c2)CC1)Nc1ccc(Cl)cc1Cl` only.
Completion: 50.8

Prompt: Answer with the recorded inhibition of `O=C(CCCN1CCN(c2ccccc2F)CC1)Nc1ccc(Cl)cc1` only.
Completion: 36.1

Prompt: Answer with the recorded inhibition of `O=C(CCCN1CCN(Cc2c(F)cccc2Cl)CC1)Nc1ccc(Cl)cc1` only.
Completion: 39.8

Prompt: Answer with the recorded inhibition of `N#Cc1ccccc1N1CCN(CCCCC(=O)N2CCN(CC(=O)Nc3ccccc3Cl)CC2)CC1` only.
Completion: 7.38

Prompt: Answer with the recorded inhibition of `COc1cccc(N2CCN(CCCC(=O)Nc3cc(Cl)c(Cl)c(Cl)c3)CC2)c1` only.
Completion: 21.6

Prompt: Answer with the recorded inhibition of `O=C(CCCN1CCN(Cc2ccc(Cl)c(Cl)c2)CC1)Nc1ccc(Cl)cc1Cl` only.
Completion: 47.6

Prompt: Answer with the recorded inhibition of `COc1ccccc1N1CCN(CCC(=O)Nc2ccc(F)cc2F)CC1` only.
Completion: 37.1
